B1: glmS ribozyme (parent)
chain: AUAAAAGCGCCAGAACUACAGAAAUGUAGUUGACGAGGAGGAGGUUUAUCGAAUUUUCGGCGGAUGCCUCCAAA

Variants of: B1
measurement_description: self-cleavage kobs at 40 uM GlcN6P; higher = faster cleavage; RNA array
measurement_parameters: with glucosamine-6-phosphate
Fewer inactive variants are shown than the library holds.
Reported values of self-cleavage kobs at 40 uM GlcN6P for individual entries
measure: self-cleavage kobs at 40 uM GlcN6P

INSERT INTO measurements (record_sequence, measure, endpoint_value) VALUES
  ('AUAAAAGCGCCAGAACUACAGAAAUGUAGUUGACGAGGAGGAGGUUUAUCGAAUUUUCGGUGGAUGACUUCAAA', 'self-cleavage kobs at 40 uM GlcN6P', '4.32e-05 s⁻¹'),
  ('AUAAAAGCGCCAGAACUACAGAAAUGUAUUUGACGAGGAGGAGGUUUAACGAAUUUUCGGCGGAUGCCUCCAAA', 'self-cleavage kobs at 40 uM GlcN6P', '< 1e-05 s⁻¹'),
  ('AUAAAAGCGCCAGAUCUACAGAAAUGUAAUUGACGAGGAGGAAGUUUAUCGAAUUUUCGGCGGAUGCCUCCAAA', 'self-cleavage kobs at 40 uM GlcN6P', '< 1e-05 s⁻¹'),
  ('AUAAAAGCACCAGAACUACAGAAAUGUAGUUCACGAGGAGGAGGUUUAUCGUAUUUUCGGCGGAUGCCUCCAAA', 'self-cleavage kobs at 40 uM GlcN6P', '< 1e-05 s⁻¹'),
  ('AUAAAAGCGCCAGAACUACAGAAAUGUAGUUGACAAGGAGGAGGUUUAUAAAAUUUUCGGCGGAUGCCUCCAAA', 'self-cleavage kobs at 40 uM GlcN6P', '< 1e-05 s⁻¹'),
  ('AUAAAAGCGCCAGAAUUACAGAAAUGUAGGUGACGAGGAGGAGGUUUAUCGAAUUUUCGGCGGAUGCCUCCAAA', 'self-cleavage kobs at 40 uM GlcN6P', '4.04e-05 s⁻¹'),
  ('AUAAAAGCGCCCGAACUACAGAAAUGUAGCUGACGAGGAGGAGGUUUAUCGAAUUUUCGGCGGAUGCCUCUAAA', 'self-cleavage kobs at 40 uM GlcN6P', '3.06e-05 s⁻¹'),
  ('AUAAAAGCGCCAGAACUACAGAAAUGUAGUUGAAGAGAAGGAGGUUUAUCGAAUUUUCGGCGGAUGCCUCCAAA', 'self-cleavage kobs at 40 uM GlcN6P', '< 1e-05 s⁻¹'),
  ('AUAAAAGCGCCAGAACUACAGAAAUGUAGUUGACGAGGAGAAGGUUUUUCGAAUUUUCGGCGGAUGCCUCCAAA', 'self-cleavage kobs at 40 uM GlcN6P', '< 1e-05 s⁻¹'),
  ('AUAAAAGCGCCAGAACUACAGAAAUGUAGUUGACGAGGAGGAGGUUUAUCGAGUUUUCGGCGGACGCCUCCAAA', 'self-cleavage kobs at 40 uM GlcN6P', '3.6e-05 s⁻¹'),
  ('AUAAAAGCGCCAGAACUACAGAAAUGUAGUUGACGAGGAGGAGGUUUAUCGAAAUUUCGGCGGAUUCCUCCAAA', 'self-cleavage kobs at 40 uM GlcN6P', '8.58e-05 s⁻¹'),
  ('AUAAAAGCGCCAGACCUACAGAAAUGUAGUUGCCGAGGAGGAGGUUUAUGGAAUUUUCGGGGGAUGCCUCCAAA', 'self-cleavage kobs at 40 uM GlcN6P', '0.000147 s⁻¹'),
  ('AUAAAAGCGCCAGAGCUACAGAAAUGUAGUUGACGAGGAGUAGGUUUAUCGAAUUUUCGGCGGAUGCCUCCAAA', 'self-cleavage kobs at 40 uM GlcN6P', '0.000204 s⁻¹'),
  ('AUAAAAGCGCCAGAAGUACAGAAAUGUAUUUGACGAGGAGGAGGUGUAUCGAAUUUUCGGCGGAUGCCUCCAAA', 'self-cleavage kobs at 40 uM GlcN6P', '4.6e-05 s⁻¹'),
  ('AUAAAAGCGCCAGAACUACAGAAAUGUAGUUGACGAGGAGGAGGUUGAUCGAAUUUUCGGCGGAGGCCUCCAAA', 'self-cleavage kobs at 40 uM GlcN6P', '3.08e-05 s⁻¹'),
  ('AUAAAAGCGCCAGAACUACAGAAAUGUAGUCGACGAGGAGGAGGUUUAUCGAAUUUUCGGCGGAUGCCUUCAAA', 'self-cleavage kobs at 40 uM GlcN6P', '0.000152 s⁻¹'),
  ('AUAAAAGCGCCAGAACUACAGAAAUGUAGUUGACGAGGAGGAGGUUUAUAGAAUUUUUGGUGUAUGCCUCCAAA', 'self-cleavage kobs at 40 uM GlcN6P', '< 1e-05 s⁻¹'),
  ('AUAAAAGCACCAGAACUACAGAAAUGUAGUUGACGAGGAGGAGGUUUAUAGAAUUCUCGGCGGAUGACUCCAAA', 'self-cleavage kobs at 40 uM GlcN6P', '< 1e-05 s⁻¹'),
  ('AUAAAAGCGCCAGAACUACAGAAAUGUAGUUGACGAGGCGGAGGUUUAUCGAAUUAUCGGCGGAUGCCUCCAAA', 'self-cleavage kobs at 40 uM GlcN6P', '5.87e-05 s⁻¹'),
  ('AUAAAAGCGCCAGAACUACAGAAAUGUAGUUCACGAGGAGGAGGUUUAUCGAAUUUUCGACGGAUGCCUCCAAA', 'self-cleavage kobs at 40 uM GlcN6P', '< 1e-05 s⁻¹'),
  ('AUAAAAGCGCCAGAAUUACAGAAAUGUAGUUGACGAGGAGGAAGUUUAUCGAAUUUUCGGCGGAUGCCUCCAAA', 'self-cleavage kobs at 40 uM GlcN6P', '< 1e-05 s⁻¹'),
  ('AUAAAAGCGCCAGGACUACAGAAAUGUAGUUGCCGAGGAGGAGGUUUAUCGAAUUUUCGGCGGAUGCCUUCAAA', 'self-cleavage kobs at 40 uM GlcN6P', '< 1e-05 s⁻¹'),
  ('AUAAAAGCGUCAGAACUACAGAAAUGUAGUUGACGCGGAGGAGGUUUAUCGAAUUCUCGGCGGAUGCCUCCAAA', 'self-cleavage kobs at 40 uM GlcN6P', '< 1e-05 s⁻¹'),
  ('AUAAAAGCGCCAGAACUACAGAAAUGUAGUUGACGAGGAGUAGGUUUAUCGAAUUUUCGGCGCAUGCCUACAAA', 'self-cleavage kobs at 40 uM GlcN6P', '< 1e-05 s⁻¹'),
  ('AUAAAAGAGCCAGAACUACAGAAAUGUAGUUGACGAGGAGGAGGUUUAUCGAAUUUUCGGCGGAUGUCUCCAAA', 'self-cleavage kobs at 40 uM GlcN6P', '< 1e-05 s⁻¹'),
  ('AUAAAAGCGCUAGAACUACAGAAAUGUAGUUGGCGAGGAGGAGGUUUAUCGAAUUUUCGGCGGAUGCCACCAAA', 'self-cleavage kobs at 40 uM GlcN6P', '< 1e-05 s⁻¹'),
  ('AUAAAAGCGCCAGAACUACAGAAAUGUAGUUGACGAGGAGGAGGUUUAUCGAAUUUUCGGUGAAUGCCUCCAAA', 'self-cleavage kobs at 40 uM GlcN6P', '< 1e-05 s⁻¹'),
  ('AUAAAAACGCCAGAACUACAGAAAUGUAGUUAACGAGGAGGAGGUUUAUCGAAUUUUAGGCGGAUGCCUCCAAA', 'self-cleavage kobs at 40 uM GlcN6P', '< 1e-05 s⁻¹'),
  ('AUAAAAGCGCCAGAACUACAGAAAUGUAGUUGACGAGGAAGAGGUUUAUCGAAUUGUCGGCGGAUGCCUCCAAA', 'self-cleavage kobs at 40 uM GlcN6P', '6e-05 s⁻¹'),
  ('AUAAAACCGCCAGAACUACAGAAAUGUAGUAGACGAGGAGGAGGUUUAUCGAAUUUUCGGCGGAUGCCUCCAAA', 'self-cleavage kobs at 40 uM GlcN6P', '< 1e-05 s⁻¹'),
  ('AUAAAAUCGCCAGAACUACAGAAAUGUACUUGACGAGGAGGAGGUUUAUCGAAUUUUCGGUGGAUGCCUCCAAA', 'self-cleavage kobs at 40 uM GlcN6P', '< 1e-05 s⁻¹'),
  ('AUAAAAGCGCCAGAACUACAGAAAUGUAGUUGACGAGGAGGAGGUUUAGCGAGUUUUCGGCGGGUGACUCCAAA', 'self-cleavage kobs at 40 uM GlcN6P', '3.28e-05 s⁻¹'),
  ('AUAAAAGCGCGAGAACUACAGAAAUGUAGUUGACGAGGAGGAGGUUUAUCAAAUUUUCGGCGGAUGCCUCCAAA', 'self-cleavage kobs at 40 uM GlcN6P', '< 1e-05 s⁻¹'),
  ('AUAAAAGCGCCAGAACUACAGAAAUGUAGAUGACGAGGAGGAGGUUUAUCGAAUUUUCGGCGUAUGCCUCCAAA', 'self-cleavage kobs at 40 uM GlcN6P', '< 1e-05 s⁻¹'),
  ('AUAAAAGCGCCAGAACUACAGAAAUGUAGUUGAGGAGGAGGAGGUUUAUGGAAUUUUCAGCGGAUGGCUCCAAA', 'self-cleavage kobs at 40 uM GlcN6P', '3.78e-05 s⁻¹'),
  ('AUAAACGCGCCAGAACUACAGAAAUGUAGUUGAAGAGGAGGAGGUUUAUCGAAUUUUCGGCGGAUGCCUCCAAA', 'self-cleavage kobs at 40 uM GlcN6P', '< 1e-05 s⁻¹'),
  ('AUAAAAGCGUCAAAACUACAGAAAUGUAGUUGACGAGGUGGAGGUUUAUCGAAUUUUCGUCGGAUGCCUCCAAA', 'self-cleavage kobs at 40 uM GlcN6P', '< 1e-05 s⁻¹'),
  ('AUAAAAGUGCCAGAACUACAGAAAUGUAGUUGGCGAGGAGGAGGUUUAUCGAAUUUUCGGCGGAUGCCUCCAAA', 'self-cleavage kobs at 40 uM GlcN6P', '< 1e-05 s⁻¹'),
  ('AUAAAAGCGGCAGAACUACAGAAAUGUAGUUGACGAGGAGGAGGUUUAUCGAAGUUUCGGCGGAUGCCUCCAAA', 'self-cleavage kobs at 40 uM GlcN6P', '< 1e-05 s⁻¹'),
  ('AUAAAAGAGCCAGAACUACAGAAAUGUAGUCGACGAGGAAGCGGUUUAUCGAAUUUUCGGCGGAAACCUCCAAA', 'self-cleavage kobs at 40 uM GlcN6P', '< 1e-05 s⁻¹'),
  ('AUAAAAGCGCCAGCACUACAGAAAUGUAGUUGACGAGGAGGAGGUUUAUCGAAUCUUCGGCGGAUGCCUCCAAA', 'self-cleavage kobs at 40 uM GlcN6P', '8.57e-05 s⁻¹'),
  ('AUAAAAGCGCCAGAACUACAGAAAUGUAGUUGACGAGGUGGAGGUUUAUCGAAUUUUCGGCGGAUGUCUCCAAA', 'self-cleavage kobs at 40 uM GlcN6P', '0.000223 s⁻¹'),
  ('AUAAAAGCGCCAGAACUACAGAAAUGUAAUUGACGAGAAGGAGGUGUAUCGAAUUUUCGGUGGAUGCCUCCAAA', 'self-cleavage kobs at 40 uM GlcN6P', '< 1e-05 s⁻¹'),
  ('AUAAAAGCGCCAGAACUACAGAAAUGUAGUUGACGAGGAGGAGGUGUAUCGAUUUUUCGGCGGAUGCCCCCAAA', 'self-cleavage kobs at 40 uM GlcN6P', '7.38e-05 s⁻¹'),
  ('AUAAAAGCGCCAGAACUACAGAAAUGUAGUUGACAAGGAGGAGGUUUCUCGAAUGUUCGGCGGAUGCCUCCAAA', 'self-cleavage kobs at 40 uM GlcN6P', '< 1e-05 s⁻¹'),
  ('AUAAAAGCGCCAGAACUACAGAAAUGUAGUUGACGAGGAGGAGCUUUAUCGAAUUUUUGGCGGAUGCCUCCAAA', 'self-cleavage kobs at 40 uM GlcN6P', '< 1e-05 s⁻¹');
